Test System: Gc of RVFV-ZH501 (Rift Valley Fever Virus strain ZH501)
Measurement Protocol: cell-based or functional assay
Measured Property: IC50 (ng/ml), neutralization of RVFV-ZH501 (ng/mL)

INSERT INTO measurements (binder, observed_result) VALUES
  ('RVFV-121 (antibody, V domains shown) VH: QMQLQESGPGLVKPSGTLSLTCAVSGDSISTSTWWSWVRQSPGKGLEWIGEIYHSESTNYNPSLKSRVSLSLDKSKNQLSLRLSSVTAADTGVYYCARGSLVFDYWGQGAQVVVSS VL: EIVMTQSPATLSVSPGERATLSCRASQSVSSNLAWYQQKPGQAPRLLIYAASTRATGIPARFSGSGSGTEFTLTISSLQSEDFAVYYCQQFNNWPRTFGQGTKVEIK', 1110);
